target: EGFR Exon19Del/T790M (Homo sapiens, UniProt P00533, DEL746-750/T790M); construct: purchased Carna Bio; assay: Inhibition of EGFR Exon19Del/T790M biochemical enzymatic activity (HTRF); conditions: EGFR Del19-T790M, 1 mM ATP, 1 h, room temperature, read-out: IC50 (nM) @Del19-T790M
Sequence (P00533 with tags, fused parts or gaps DEL746-750/T790M limits assumed): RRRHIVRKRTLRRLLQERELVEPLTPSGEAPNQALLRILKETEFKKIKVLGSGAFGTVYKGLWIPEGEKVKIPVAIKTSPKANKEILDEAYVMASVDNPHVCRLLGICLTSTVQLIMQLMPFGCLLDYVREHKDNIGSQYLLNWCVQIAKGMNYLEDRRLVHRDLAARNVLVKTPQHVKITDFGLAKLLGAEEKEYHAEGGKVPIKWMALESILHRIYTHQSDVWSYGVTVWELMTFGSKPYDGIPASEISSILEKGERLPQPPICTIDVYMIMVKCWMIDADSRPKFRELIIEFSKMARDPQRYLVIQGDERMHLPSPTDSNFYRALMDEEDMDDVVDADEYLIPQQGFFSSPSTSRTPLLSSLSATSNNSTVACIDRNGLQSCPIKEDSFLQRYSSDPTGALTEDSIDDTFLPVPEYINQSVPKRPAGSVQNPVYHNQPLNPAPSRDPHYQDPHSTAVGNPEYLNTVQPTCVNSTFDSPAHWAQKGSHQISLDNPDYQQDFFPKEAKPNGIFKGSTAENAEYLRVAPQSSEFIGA
ASSAY READOUT: log10(IC50) (log10 of the value in nM)
All values: base-10 log of IC50 in nM.

// recorded log10(IC50) for CN1CC2CC1CN2c1ccc2nc3n(c2c1)C12CCC(CN(CCOc4c(cnn4C)-c4cc(cn(C)c4=O)C(=O)N3)C1)C2 (single isomer, unassigned) [Example A105B] : 0.34

Value of log10(IC50) reported for the compound CN1CCC2CN(c3ccc4nc5n(c4c3)C34CCC(CC3)CN(CCOc3c(cnn3C)-c3cc(cn(C)c3=O)C(=O)N5)C4)CC21 (stereo not drawn) is 1.00

Short answer for C[C@@H]1CCCOc2c(cnn2C)-c2cc(cn(C)c2=O)C(=O)Nc2nc3ccc(N4CCC(N5CCOCC5)C4)cc3n2C1 (stereo partly drawn) : log10(IC50) was 1.34

Looking up CCN1CCN(c2ccc3nc4n(c3c2)C23CCC(CN(CCOc5c(cnn5C)-c5cc(cn(C)c5=O)C(=O)N4)C2)C3)CC1 (single isomer, unassigned) [Example A107A] , I found its log10(IC50) recorded as 3.65

CN1CC2(CCN(c3ccc4nc5n(c4c3)C34CCC(CN(CCOc6c(cnn6C)-c6cc(cn(C)c6=O)C(=O)N5)C3)C4)C2)C1 (single isomer, unassigned) [Example A73B] has a reported log10(IC50) of 0.34

# log10(IC50) (compound: `Cn1ncc2c1OCCN1CC3CCC(CC3)(C1)n1c(nc3cc(F)c(N4CCOCC4)cc31)NC(=O)c1cc-2c(=O)n(C)c1` ) is 1.51

Consider C[C@@H]1CCCOc2c(cnn2C)-c2cc(cn(C)c2=O)C(=O)Nc2nc3ccc(N4CCC(N(C)C)C4)cc3n2C1 (stereo partly drawn) . Its measured log10(IC50) is 1.18

Entry CN1C2CC1CN(c1ccc3nc4n(c3c1)C13CCC(CN(CCOc5c(cnn5C)-c5cc(cn(C)c5=O)C(=O)N4)C1)C3)C2 (single isomer, unassigned) [Example A98A] , log10(IC50) reported as 3.53

// sample `C[C@@H]1CCCOc2ccccc2-c2cc(cn(C)c2=O)C(=O)Nc2nc3ccc(N4CCN(C)CC4)cc3n2C1` , its log10(IC50) was 0.90

The value of log10(IC50) measured for the compound `CC(C)N1CCN(c2ccc3nc4n(c3c2)C[C@H](C)CCCOc2c(cnn2C)-c2cc(cn(C)c2=O)C(=O)N4)CC1` turned out to be 0.58

----------
Record form. Attribute: log10 of GI50. Fill in for each entry.
test system: Ba/F3 cells expressing EGFR mutations; assay: Cell proliferation assay, Ba/F3 cells expressing EGFR mutations (CellTiter-Glo, 72 hours); format: cell-based; conditions: Mus musculus, BaF3, 72 h, BaF3 cells, EGFR L858R-T790M, CellTiter-Glo, read-out: L858R-T790M/BaF3 GI50
Please note: log10 values; quantity GI50; unit nM.

// `C[C@@H]1CCCOc2c(cnn2C)-c2cc(cn(C)c2=O)C(=O)Nc2nc3ccc(N4CCN(C(=O)OC(C)(C)C)CC4)cc3n2C1` : log10 of GI50 value = 2.46

// recorded log10 of GI50 for C[C@@H]1CCCOc2c(cnn2C)-c2cc(cn(C)c2=O)C(=O)Nc2nc3ccc(N4CCC(N5CCN(C)CC5)C4)cc3n2C1 (stereo partly drawn) : 0.53

Lab book: log10 of GI50 of `C[C@@H]1CCCOc2c(cnn2CC(F)(F)F)-c2cc(cn(C)c2=O)C(=O)Nc2nc3ccc(N4CCN(C)CC4)cc3n2C1` noted as 1.59

Summary for this molecule, `C[C@@H]1CCCOc2c(cnn2C)-c2cc(cn(C)c2=O)C(=O)Nc2nc3ccc(N4CC(N(C)C)C4)cc3n2C1` : log10 of GI50 is 1.00

Value of log10 of GI50 reported for the molecule `C[C@@H]1CCCOc2c(cnn2C)-c2cc(cn(C)c2=O)C(=O)Nc2nc3ccc(N4CCC5(CCN(C)C5)CC4)cc3n2C1` is 0.53

Lab note: measured log10 of GI50 of C[C@@H]1CCCOc2c(cnn2C)-c2cc(cn(C)c2=O)C(=O)Nc2nc3ccc(N4CC5CCN(C)C5C4)cc3n2C1 (stereo partly drawn) was 0.96

----------
biological target: EGFR wild type (Homo sapiens, UniProt P00533); construct: purchased Carna Bio; experiment: Inhibition of EGFR wild type biochemical enzymatic activity (HTRF); details: EGFR WT, 1 mM ATP, 1 h, room temperature, read-out: IC50 (nM) @WT
Sequence (P00533 25-1210): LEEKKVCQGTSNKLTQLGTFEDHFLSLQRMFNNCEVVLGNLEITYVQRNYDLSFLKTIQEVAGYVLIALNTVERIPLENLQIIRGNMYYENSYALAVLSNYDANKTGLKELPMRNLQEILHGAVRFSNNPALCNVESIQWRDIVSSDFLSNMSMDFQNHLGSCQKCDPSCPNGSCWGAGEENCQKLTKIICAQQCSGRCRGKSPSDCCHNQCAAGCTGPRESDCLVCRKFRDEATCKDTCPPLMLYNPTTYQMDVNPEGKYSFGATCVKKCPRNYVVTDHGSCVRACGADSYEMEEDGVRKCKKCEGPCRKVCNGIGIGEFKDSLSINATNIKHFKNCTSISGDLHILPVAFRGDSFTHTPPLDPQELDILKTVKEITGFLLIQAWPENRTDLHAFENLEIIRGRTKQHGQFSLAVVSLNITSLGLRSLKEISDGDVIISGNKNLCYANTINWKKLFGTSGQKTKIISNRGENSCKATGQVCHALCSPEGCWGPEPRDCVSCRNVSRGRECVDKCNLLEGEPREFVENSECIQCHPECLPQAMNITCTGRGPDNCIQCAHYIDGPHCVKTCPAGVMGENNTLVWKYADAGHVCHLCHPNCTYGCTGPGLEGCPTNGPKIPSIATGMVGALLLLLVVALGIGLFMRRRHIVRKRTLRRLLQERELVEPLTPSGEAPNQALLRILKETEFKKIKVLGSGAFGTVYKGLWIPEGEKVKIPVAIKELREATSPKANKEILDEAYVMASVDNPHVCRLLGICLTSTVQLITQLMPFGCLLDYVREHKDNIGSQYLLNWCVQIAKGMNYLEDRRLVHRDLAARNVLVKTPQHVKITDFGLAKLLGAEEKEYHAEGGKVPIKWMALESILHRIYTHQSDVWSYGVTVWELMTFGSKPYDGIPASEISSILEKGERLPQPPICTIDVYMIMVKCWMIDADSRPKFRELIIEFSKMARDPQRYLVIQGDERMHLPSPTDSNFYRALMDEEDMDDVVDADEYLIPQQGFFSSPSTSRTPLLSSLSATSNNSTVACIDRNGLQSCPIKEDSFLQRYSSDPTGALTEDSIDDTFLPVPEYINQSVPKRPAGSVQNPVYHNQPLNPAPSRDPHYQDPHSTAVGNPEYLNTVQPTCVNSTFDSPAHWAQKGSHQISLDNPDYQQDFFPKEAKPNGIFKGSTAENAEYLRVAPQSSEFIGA
Exercise: for every item that follows, state its recorded IC50.
Use nM as the unit, but write only the number.

Looking up C[C@@H]1CCCOc2c(cnn2C)-c2cc(cn(C)c2=O)C(=O)Nc2nc3ccc(N(C)CCN(C)C)cc3n2C1 [Example A36] , I found its IC50 recorded as 193

Form: molecule = C[C@@H]1CCCOc2c(cnn2C)-c2cc(cn(C)c2=O)C(=O)Nc2nc3ccc(N4CC5(CCN(C)CC5(F)F)C4)cc3n2C1 [Example A56] ; IC50 = 501

IC50 for C[C@@H]1CCCOc2c(cnn2C)-c2cc(cn(C)c2=O)C(=O)Nc2nc3ccc(N4CC5(CCN(C)C5)C4)cc3n2C1 [Example A42] is 42

----------
target: EGFR (C797S L858R) (Homo sapiens, UniProt P00533, C797S/L858R); construct: purchased signalchem; experiment: Inhibition of EGFR (C797S L858R) biochemical enzymatic activity (HTRF); settings: EGFR L858-C797S, 1 mM ATP, 1 h, room temperature, read-out: IC50 (nM) @L858-C797S
Sequence (P00533 25-1210 C797S/L858R): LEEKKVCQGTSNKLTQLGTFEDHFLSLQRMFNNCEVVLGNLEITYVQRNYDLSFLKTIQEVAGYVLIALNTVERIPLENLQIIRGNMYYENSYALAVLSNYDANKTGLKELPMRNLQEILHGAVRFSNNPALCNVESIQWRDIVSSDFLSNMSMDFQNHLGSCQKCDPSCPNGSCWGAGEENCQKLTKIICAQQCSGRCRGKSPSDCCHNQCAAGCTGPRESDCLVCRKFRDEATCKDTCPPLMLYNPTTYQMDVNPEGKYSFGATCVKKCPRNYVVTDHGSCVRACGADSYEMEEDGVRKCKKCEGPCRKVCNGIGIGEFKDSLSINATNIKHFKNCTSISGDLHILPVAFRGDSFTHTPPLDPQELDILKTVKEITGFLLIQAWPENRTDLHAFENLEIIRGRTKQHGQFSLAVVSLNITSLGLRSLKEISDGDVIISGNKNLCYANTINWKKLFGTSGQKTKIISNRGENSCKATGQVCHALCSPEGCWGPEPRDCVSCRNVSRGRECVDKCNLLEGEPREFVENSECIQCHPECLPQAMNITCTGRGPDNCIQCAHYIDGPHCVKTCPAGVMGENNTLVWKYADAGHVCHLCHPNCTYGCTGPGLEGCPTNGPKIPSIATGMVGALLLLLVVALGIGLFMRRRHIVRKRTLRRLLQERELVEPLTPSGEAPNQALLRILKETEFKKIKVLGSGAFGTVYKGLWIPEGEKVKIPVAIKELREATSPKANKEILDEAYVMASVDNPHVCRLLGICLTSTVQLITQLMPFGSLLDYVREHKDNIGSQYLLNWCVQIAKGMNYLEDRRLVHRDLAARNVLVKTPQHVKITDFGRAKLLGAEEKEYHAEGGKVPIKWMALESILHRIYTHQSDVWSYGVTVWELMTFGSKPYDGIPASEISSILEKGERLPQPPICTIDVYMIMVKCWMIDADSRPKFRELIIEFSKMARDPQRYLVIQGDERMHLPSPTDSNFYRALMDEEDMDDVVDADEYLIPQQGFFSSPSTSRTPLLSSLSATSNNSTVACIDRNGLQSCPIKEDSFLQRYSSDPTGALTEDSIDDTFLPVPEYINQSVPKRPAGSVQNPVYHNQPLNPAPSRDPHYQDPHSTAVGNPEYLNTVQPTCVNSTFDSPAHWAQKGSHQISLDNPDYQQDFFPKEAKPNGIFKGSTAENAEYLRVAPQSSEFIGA
ASSAY READOUT: IC50

molecule C[C@@H]1CCCOc2c(cnn2C)-c2cc(cn(C)c2=O)C(=O)Nc2nc3ccc(N4CCC(N(C)C)C(F)C4)cc3n2C1 (stereo partly drawn) , IC50 observed: 2.9 nM

Entry `C[C@@H]1CCCOc2c(cnn2C)-c2cc(cn(C)c2=O)C(=O)Nc2nc3ccc4c(c3n2C1)CCNC4` — recorded IC50 = 167 nM

# IC50 (molecule: CN1CCC2(CC1)CN(c1ccc3nc4n(c3c1)C13CCC(CN(CCOc5c(cnn5C)-c5cc(cn(C)c5=O)C(=O)N4)C1)C3)C2 (single isomer, unassigned) [Example A77A] ) is > 5000 nM

molecule `C[C@@H]1CCCOc2c(cnn2C)-c2cc(cn(C)c2=O)C(=O)Nc2nc3ccc(N4CCN(CC(F)(F)F)CC4)cc3n2C1` , IC50 observed: 135 nM

Documented IC50 of `C[C@@H]1CCCOc2c(cnn2C)-c2cc(cn(C)c2=O)C(=O)Nc2nc3ccc(N4CC(N(C)C)C4)cc3n2C1` : 13 nM

The molecule listed as `C[C@@H]1CCCNc2c(cnn2C)-c2cc(cn(C)c2=O)C(=O)Nc2nc3ccc(N4CCN(C)CC4)cc3n2C1` has a reported IC50 of 2650 nM

----------
tested on: Ba/F3 cells expressing EGFR mutations; test: Cell proliferation assay, Ba/F3 cells expressing EGFR mutations (CellTiter-Glo, 72 hours); format: cell-based; conditions: Mus musculus, BaF3, 72 h, BaF3 cells, EGFR L858R-T790M, CellTiter-Glo, read-out: L858R-T790M/BaF3 GI50
Recorded GI50 determines the label; the label ranges are low interval (below 20 nM), middle interval (20 nM to below 100 nM), high interval (100 nM or more)

Would you mind sorting Cn1ncc2c1OCCN1CC3(CCCC1C3)n1c(nc3ccc(N4CCOCC4)cc31)NC(=O)c1cc-2c(=O)n(C)c1 (stereo not drawn) into the appropriate category?
high interval

Looking at Cn1ncc2c1OCCN1CCC(C)(C1)n1c(nc3ccc(N4CCOCC4)cc31)NC(=O)c1cc-2c(=O)n(C)c1 (stereo not drawn) , which class would you pick?
high interval

Which bin should I file C[C@@H]1CCCOc2c(cnn2C)-c2cc(cn(C)c2=O)C(=O)Nc2nc3ccc(N4CC5CC4CN5C)cc3n2C1 (stereo partly drawn) under?
middle interval

Each compound maps to one class by GI50. Which class for `Cn1ncc2c1OCCN1CC3CCC(CC3)(C1)n1c(nc3ccc(N4CCOCC4)cc31)NC(=O)c1cc-2c(=O)n(C)c1` ?
high interval

Entry `C[C@@H]1CCCOc2c(cnn2C)-c2cc(cn(C)c2=O)C(=O)Nc2nc3ccc(N4CCN(C)CC4)cc3n2C1` belongs to which category?
low interval

Band for the recorded GI50 of `C[C@@H]1CCCOc2c(cnn2C)-c2cc(cn(C)c2=O)C(=O)Nc2nc3ccc(N4CCC5(CN(C)C5)C4)cc3n2C1` ?
low interval

Band for `C[C@@H]1CCCOc2c(cnn2C)-c2cc(cn(C)c2=O)C(=O)Nc2nc3ccc(N4CC5(CCCN5C)C4)cc3n2C1` ?
middle interval

Looking at `C[C@@H]1CCCOc2c(cnn2C)-c2cc(cn(C)c2=O)C(=O)Nc2nc3ccc4c(c3n2C1)CCN(C)C4` , which class would you pick?
middle interval
